Target: T1, human collagen type I (acid soluble, extracted from placenta, Sigma C7774) (human, UniProt P02452 162-1218; P08123 80-1119)
T1 construct: gelled and dried as a fibril film in the assay; also called dried human collagen; h-Collagen
T1 sequence (P02452 162-1218 limits assumed, chain 1 of 2): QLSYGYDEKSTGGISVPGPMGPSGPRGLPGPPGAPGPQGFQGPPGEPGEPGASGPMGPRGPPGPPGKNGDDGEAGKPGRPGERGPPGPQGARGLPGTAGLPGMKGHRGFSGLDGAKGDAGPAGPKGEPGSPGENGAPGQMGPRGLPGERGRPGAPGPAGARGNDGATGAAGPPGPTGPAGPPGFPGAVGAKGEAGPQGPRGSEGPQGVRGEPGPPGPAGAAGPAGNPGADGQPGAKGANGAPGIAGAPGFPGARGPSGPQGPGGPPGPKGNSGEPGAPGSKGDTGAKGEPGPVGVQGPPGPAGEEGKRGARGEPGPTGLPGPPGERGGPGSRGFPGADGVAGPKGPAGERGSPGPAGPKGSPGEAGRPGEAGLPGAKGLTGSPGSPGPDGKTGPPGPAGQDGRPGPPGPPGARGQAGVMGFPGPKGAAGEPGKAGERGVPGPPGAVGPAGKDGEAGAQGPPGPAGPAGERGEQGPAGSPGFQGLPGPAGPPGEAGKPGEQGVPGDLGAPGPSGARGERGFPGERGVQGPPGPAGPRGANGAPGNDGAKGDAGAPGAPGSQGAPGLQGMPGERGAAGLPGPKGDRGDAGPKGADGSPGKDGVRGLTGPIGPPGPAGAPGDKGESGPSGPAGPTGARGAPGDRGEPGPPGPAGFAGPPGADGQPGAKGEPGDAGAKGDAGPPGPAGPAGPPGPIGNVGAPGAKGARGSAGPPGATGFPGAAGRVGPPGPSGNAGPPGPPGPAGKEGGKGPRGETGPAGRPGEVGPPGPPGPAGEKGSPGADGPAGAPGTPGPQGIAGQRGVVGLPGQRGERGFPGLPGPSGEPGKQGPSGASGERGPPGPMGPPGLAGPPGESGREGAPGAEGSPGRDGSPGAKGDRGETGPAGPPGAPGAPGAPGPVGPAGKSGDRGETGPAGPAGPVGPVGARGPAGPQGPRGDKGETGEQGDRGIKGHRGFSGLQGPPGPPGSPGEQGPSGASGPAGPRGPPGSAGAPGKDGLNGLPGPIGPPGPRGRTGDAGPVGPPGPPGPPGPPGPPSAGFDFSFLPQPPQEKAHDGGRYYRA
T1 sequence (P08123 80-1119 limits assumed, chain 2 of 2): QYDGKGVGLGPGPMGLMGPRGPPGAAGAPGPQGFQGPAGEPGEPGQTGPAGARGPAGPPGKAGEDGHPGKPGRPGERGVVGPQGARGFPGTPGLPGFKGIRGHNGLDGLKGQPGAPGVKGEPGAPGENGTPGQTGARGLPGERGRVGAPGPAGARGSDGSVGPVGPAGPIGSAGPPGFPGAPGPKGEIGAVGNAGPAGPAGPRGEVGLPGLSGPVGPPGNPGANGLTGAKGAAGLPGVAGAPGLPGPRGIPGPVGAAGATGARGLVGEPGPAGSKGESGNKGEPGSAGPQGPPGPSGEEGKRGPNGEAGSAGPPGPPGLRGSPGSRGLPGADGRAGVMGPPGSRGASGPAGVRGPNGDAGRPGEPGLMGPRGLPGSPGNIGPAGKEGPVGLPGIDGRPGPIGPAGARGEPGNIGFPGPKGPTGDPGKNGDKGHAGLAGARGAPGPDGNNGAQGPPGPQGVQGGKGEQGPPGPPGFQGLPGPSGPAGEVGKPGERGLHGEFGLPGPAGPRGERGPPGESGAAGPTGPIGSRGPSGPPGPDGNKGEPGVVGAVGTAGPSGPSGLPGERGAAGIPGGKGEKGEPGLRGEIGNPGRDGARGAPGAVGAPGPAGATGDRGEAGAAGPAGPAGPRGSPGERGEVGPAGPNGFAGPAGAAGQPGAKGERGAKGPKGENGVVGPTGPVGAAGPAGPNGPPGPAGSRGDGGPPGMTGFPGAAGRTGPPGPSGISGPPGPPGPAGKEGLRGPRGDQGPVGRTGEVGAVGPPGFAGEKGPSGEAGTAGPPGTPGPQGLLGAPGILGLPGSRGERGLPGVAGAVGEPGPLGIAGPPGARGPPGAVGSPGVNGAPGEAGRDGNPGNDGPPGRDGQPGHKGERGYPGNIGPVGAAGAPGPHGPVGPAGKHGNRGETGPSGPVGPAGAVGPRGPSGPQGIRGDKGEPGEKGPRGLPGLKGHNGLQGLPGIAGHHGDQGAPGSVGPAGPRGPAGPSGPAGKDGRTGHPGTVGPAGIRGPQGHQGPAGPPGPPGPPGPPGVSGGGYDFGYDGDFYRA
Assay: dried collagen assay
Bridge positions count the residues as written; N and C are the ends. Square brackets hold non-standard residues; d marks the D form. Ends that are not written are not given here.
quantity-kind: % bound (%)

binder	unit-annotation	% bound
YHACYQAGCW[dI]W (disulfide 4-9 (inferred)) [SEQ ID NO: 161]	%	8
YH[dA]CYQAGCWIW (disulfide 4-9 (inferred)) [SEQ ID NO: 154]	%	24
YHACYQAGC[dW]IW (disulfide 4-9 (inferred)) [SEQ ID NO: 160]	%	20
YHACYQ[dA]GCWIW (disulfide 4-9 (inferred)) [SEQ ID NO: 158]	%	56
YHAC[dY]QAGCWIW (disulfide 4-9 (inferred)) [SEQ ID NO: 156]	%	38

P = Y[dH]ACYQAGCWIW (disulfide 4-9 (inferred)) [SEQ ID NO: 153]
Q = YHACY[dQ]AGCWIW (disulfide 4-9 (inferred)) [SEQ ID NO: 157]
Hi team, can someone confirm which has the larger % bound: P or Q ? Thanks. # answer = label of selected item
Q
